target: plasma purified human complement protein C3 (human) (UniProt P01024); test: cell-based or functional assay
Sequence (P01024 23-667, chain 1 of 2): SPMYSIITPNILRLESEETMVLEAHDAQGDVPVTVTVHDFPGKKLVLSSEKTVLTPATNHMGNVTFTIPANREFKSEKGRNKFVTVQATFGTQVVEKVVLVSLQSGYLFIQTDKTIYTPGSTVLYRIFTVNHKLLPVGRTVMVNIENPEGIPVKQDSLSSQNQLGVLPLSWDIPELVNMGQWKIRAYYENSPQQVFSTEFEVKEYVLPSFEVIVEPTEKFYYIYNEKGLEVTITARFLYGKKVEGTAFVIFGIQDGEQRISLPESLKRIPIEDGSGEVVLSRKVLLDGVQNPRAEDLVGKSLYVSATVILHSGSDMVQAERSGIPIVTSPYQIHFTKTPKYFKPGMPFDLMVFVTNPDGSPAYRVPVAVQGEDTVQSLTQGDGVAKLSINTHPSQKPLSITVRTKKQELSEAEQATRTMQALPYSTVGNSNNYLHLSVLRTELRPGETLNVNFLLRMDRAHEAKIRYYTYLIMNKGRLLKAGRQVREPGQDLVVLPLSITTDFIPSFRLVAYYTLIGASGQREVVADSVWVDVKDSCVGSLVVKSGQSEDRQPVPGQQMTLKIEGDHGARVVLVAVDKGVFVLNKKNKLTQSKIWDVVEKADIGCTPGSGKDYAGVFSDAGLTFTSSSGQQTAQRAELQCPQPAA
Sequence (P01024 672-1663, chain 2 of 2): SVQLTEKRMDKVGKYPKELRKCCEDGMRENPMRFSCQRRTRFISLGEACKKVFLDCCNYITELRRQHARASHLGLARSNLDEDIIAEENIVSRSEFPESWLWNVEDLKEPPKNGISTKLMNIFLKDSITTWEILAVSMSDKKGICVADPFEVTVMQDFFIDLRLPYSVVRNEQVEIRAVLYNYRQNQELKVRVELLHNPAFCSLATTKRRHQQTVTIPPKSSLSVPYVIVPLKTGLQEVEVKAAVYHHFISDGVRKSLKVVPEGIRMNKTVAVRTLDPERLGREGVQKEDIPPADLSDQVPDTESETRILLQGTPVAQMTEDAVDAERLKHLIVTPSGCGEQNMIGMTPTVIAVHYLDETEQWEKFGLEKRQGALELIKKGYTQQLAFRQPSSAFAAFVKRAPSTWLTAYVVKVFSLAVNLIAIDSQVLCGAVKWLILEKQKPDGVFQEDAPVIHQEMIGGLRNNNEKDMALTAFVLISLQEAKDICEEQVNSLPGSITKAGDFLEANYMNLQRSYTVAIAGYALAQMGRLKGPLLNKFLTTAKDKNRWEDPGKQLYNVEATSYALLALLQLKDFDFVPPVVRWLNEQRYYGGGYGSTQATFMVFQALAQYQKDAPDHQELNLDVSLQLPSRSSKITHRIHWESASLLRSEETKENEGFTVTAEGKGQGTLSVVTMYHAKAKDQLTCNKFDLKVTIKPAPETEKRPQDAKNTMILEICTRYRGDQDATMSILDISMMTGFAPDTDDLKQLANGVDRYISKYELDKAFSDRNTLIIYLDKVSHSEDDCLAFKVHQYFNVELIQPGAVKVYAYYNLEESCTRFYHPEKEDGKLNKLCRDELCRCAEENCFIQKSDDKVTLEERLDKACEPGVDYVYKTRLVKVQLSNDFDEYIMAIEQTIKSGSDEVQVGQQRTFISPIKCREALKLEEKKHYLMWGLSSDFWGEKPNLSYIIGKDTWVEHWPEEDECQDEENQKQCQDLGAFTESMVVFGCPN
EC50 of hC3 cleavage for assorted binders

binder | EC50 of hC3 cleavage [nM]
MTSP-1 Q38E/I41S/D60bV/F60eK/Y60gW/ins97aE/F97T/T98G/F99L/C122S/G151H/Q175L/Q192D (enzyme) VVGGTDADEGEWPWQVSLHALGEGHSCGASLISPNWLVSAAHCYIDVRGKRWSDPTQWTAFLGLHDQSQRSAPGVQERRLKRIISHPFFNDTEGLDYDIALLELEKPAEYSSMVRPISLPDASHVFPAGKAIWVTGWGHTQYGGTHALILQKGEIRVINQTTCENLLPQLITPRMMCVGFLSGGVDSCDGDSGGPLSSVEADGRIFQAGVVSWGDGCAQRNKPGVYTRLPLFRDWIKENTGV | 22.9
MTSP-1 Q38H/I41S/D60bT/F60eS/Y60gW/D96K/ins97aV/F97G/T98P/F99L/C122S/G151H/Q175L/Q192D (enzyme) VVGGTDADEGEWPWQVSLHALGHGHSCGASLISPNWLVSAAHCYIDTRGSRWSDPTQWTAFLGLHDQSQRSAPGVQERRLKRIISHPFFNKGVPLDYDIALLELEKPAEYSSMVRPISLPDASHVFPAGKAIWVTGWGHTQYGGTHALILQKGEIRVINQTTCENLLPQLITPRMMCVGFLSGGVDSCDGDSGGPLSSVEADGRIFQAGVVSWGDGCAQRNKPGVYTRLPLFRDWIKENTGV | 6.86
MTSP-1 Q38H/I41A/D60bY/F60eT/ins97aE/F97T/T98G/F99L/C122S/Q175L/Q192D (enzyme) VVGGTDADEGEWPWQVSLHALGHGHACGASLISPNWLVSAAHCYIDYRGTRYSDPTQWTAFLGLHDQSQRSAPGVQERRLKRIISHPFFNDTEGLDYDIALLELEKPAEYSSMVRPISLPDASHVFPAGKAIWVTGWGHTQYGGTGALILQKGEIRVINQTTCENLLPQLITPRMMCVGFLSGGVDSCDGDSGGPLSSVEADGRIFQAGVVSWGDGCAQRNKPGVYTRLPLFRDWIKENTGV | 4.77
